Below is a list of entries, each paired with its recorded IC50 at 2 days value.
Assay: MTT-microtiter plate tetrazolium cytotoxicity assay
Assay type: cell-based
Conditions: dog, MDCK (ATCC) cells; continuous exposure for 2 days; read-out: IC50 cytotoxic doses
Experimental: (a) Cytotoxcity Assay: The cytotoxic effects of compounds of the invention was determined using pharmacological models that are well known to the art, i.e., MTT-microtiter plate tetrazolium cytotoxicity Assay. Specifically, cytotoxicity assays were performed using the MIT assay procedure described in Mosmann, 1983, Rapid calorimetric assay for cellular growth and survival: application to proliferation and cytotoxicity assays, J Immunol Methods, 65:55-63. […]
QUANTITY_KIND: IC50 at 2 days (µg/mL)

1) Nc1ncnc2c1ncn2COCCO [SN2, 9-[(2-Hydroxyethoxy)methyl]-adenine]	750
2) Cc1cn(COCCO)c(=O)[nH]c1=O [SN1]	750

====

List of IC50 at 2 days values.
Experiment: MTT-microtiter plate tetrazolium cytotoxicity assay
Type: cell-based
Conditions: dog, MDCK (ATCC) cells; continuous exposure for 2 days; read-out: IC50 cytotoxic doses
Method: (a) Cytotoxcity Assay: The cytotoxic effects of compounds of the invention was determined using pharmacological models that are well known to the art, i.e., MTT-microtiter plate tetrazolium cytotoxicity Assay. Specifically, cytotoxicity assays were performed using the MIT assay procedure described in Mosmann, 1983, Rapid calorimetric assay for cellular growth and survival: application to proliferation and cytotoxicity assays, J Immunol Methods, 65:55-63. […]
Counter-ions that a name gives are not always drawn.
QUANTITY_KIND: IC50 at 2 days

1. Cc1cn(COC(CO)CO)c(=O)[nH]c1=O	> 1000 mg/L
2. Nc1ncnc2c1ncn2COC(CO)CO	> 1000 mg/L
3. Cc1cn(COCCOC(=O)[C@@H](N)C(C)C)c(=O)[nH]c1=O [VSN1, hydrochloride monohydrate]	> 1000 mg/L
